target.or.test.system: T1, hASIC1a on CHO-K1 cells stably expressing hASIC1a (human, UniProt P78348 1-528)
T1 sequence (looked up): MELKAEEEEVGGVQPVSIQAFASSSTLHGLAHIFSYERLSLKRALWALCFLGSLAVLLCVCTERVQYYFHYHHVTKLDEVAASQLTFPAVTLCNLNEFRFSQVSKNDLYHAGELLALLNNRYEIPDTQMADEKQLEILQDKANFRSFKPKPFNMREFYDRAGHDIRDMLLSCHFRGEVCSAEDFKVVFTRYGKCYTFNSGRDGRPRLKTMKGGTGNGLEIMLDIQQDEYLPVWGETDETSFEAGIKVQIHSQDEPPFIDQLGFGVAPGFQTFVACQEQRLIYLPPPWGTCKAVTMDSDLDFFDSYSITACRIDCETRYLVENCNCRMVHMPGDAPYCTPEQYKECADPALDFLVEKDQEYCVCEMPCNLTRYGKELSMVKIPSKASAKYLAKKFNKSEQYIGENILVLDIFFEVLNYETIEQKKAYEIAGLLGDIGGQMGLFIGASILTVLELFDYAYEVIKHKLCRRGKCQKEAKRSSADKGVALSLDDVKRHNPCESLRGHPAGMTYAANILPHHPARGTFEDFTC
assay.name: cell-based or functional assay
With a cut-off of 50 nM, any IC50 for the inhibition of ASIC1a currents, FMP assay strictly below it is called true (1); any IC50 for the inhibition of ASIC1a currents, FMP assay meeting it or above is called false (0).

Worked cases, answers included:
| binder | discrete.label |
| --- | --- |
| ASC06-05-IgG1 (antibody, V domains shown) VH: QVQLQQSGGGLVQPGGSLRLSCAASGFTFSSYAMSWVRQAPGKGLEWVSAISGSGGSTYYADSVKGRFTISRDNSKNTLYLQMNSLRAEDTAVYYCAKDSYFGRAKGSWGQGTLVTVSS VL: QSALTQPASVSGSPGQSITISCTGTSSDVGAYNYVSWYQQQPGKAPKLMIYGVSNRPSGVSNRFSGSKSGNAASLTISGLQAEDEADYYCSSYTSSSTYVFGTGTKLTVLG | true (1) |
| ASC06-04-IgG1 (antibody, V domains shown, Full length IgG1) VH: QVQLQQSGGGLVQPGGSLRLSCAASGFTFSSYAMSWVRQAPGKGLEWVSAISGSGGSTYYADSVKGRFTISRDNSKNTLYLQMNSLRAEDTAVYYCAKDSFYGRAKGVWGQGTLVTVSS VL: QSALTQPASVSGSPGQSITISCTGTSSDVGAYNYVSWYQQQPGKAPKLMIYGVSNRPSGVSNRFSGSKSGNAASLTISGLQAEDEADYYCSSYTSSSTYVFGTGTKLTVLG | false (0) |
| ASC06-IgG1 (antibody, V domains shown, Tested as full length IgG1; also called WT antibody ASC06-IgG1; parental ASC06-IgG1 antibody) VH: QVQLQQSGGGLVQPGGSLRLSCAASGFTFSSYAMSWVRQAPGKGLEWVSAISGSGGSTYYADSVKGRFTISRDNSKNTLYLQMNSLRAEDTAVYYCAKDSFYGYSKGDWGQGTLVTVSS VL: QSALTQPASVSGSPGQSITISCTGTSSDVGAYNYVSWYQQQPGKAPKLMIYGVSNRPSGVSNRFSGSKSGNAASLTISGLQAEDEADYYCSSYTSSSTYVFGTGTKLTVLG | false (0) |

In plain terms, does ASC06-02-IgG1 (antibody, V domains shown, Full length IgG1) VH: QVQLQQSGGGLVQPGGSLRLSCAASGFTFSSYAMSWVRQAPGKGLEWVSAISGSGGSTYYADSVKGRFTISRDNSKNTLYLQMNSLRAEDTAVYYCAKDSFFGRAKGSWGQGTLVTVSS VL: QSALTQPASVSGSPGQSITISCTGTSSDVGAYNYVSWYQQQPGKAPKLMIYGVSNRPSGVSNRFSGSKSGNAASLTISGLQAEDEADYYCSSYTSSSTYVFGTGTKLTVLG come in under 50 nM for IC50 for the inhibition of ASIC1a currents, FMP assay?
true (1)

I'd appreciate it if you could check whether ASC06-01-IgG1 (antibody, V domains shown, Full length IgG1) VH: QVQLQQSGGGLVQPGGSLRLSCAASGFTFSSYAMSWVRQAPGKGLEWVSAISGSGGSTYYADSVKGRFTISRDNSKNTLYLQMNSLRAEDTAVYYCAKDSYFGYSKGDWGQGTLVTVSS VL: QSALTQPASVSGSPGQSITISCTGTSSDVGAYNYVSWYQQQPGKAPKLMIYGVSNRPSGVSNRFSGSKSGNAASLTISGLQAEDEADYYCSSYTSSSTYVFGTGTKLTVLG has IC50 for the inhibition of ASIC1a currents, FMP assay smaller than 50 nM.
false (0)

The reported measurements were obtained from patent US20230174642A1.
